# Test system: HCT-15 colon
# TEST DETAILS: NCI-60 one-dose screen, 48 h
# TEST SETTINGS: 10 µM unless noted
This is part of a sample that, as a whole, favours compounds with a hit. Of some 83,000 tested, about 20% had one in any assay. Active and inactive are the calls of the source. How the source made its calls: active means growth percent below 10; inactive means the rest.
Give your call using only these classes: T for active, F for inactive

Solved entries (count: 10):
COc1ccc2c(c1)[nH]c(=O)c1c3cccnc3cn21: F
CN(C)c1ccc(-c2ccc3[nH]c(=O)nc(-c4ccccc4)c3c2)cn1: F
CC1OC(O[C@H]2/C=C/C=C/C=C/C=C/C=C/C=C/C=C/[C@H](C)[C@@H](O)[C@@H](C)[C@H](C)OC(=O)CC(O)CC(O)CCC(O)C(O)CC(O)C[C@]3(O)C[C@H](O)C(C(=O)O)C(C2)O3)C(O)[C@H](N)C1O (some centres not stated): F
COc1ccc(OC)c(-c2c(C#N)c(-c3ccc(Cl)cc3)nc3c2c(-c2ccccc2)nn3-c2ccccc2)c1: F
COc1cc(C2CC(=O)Nc3c2c(C)nn3-c2nc3ccccc3[nH]2)cc2c1OCC(=O)N2 (configuration not stated): F
O=c1ssc(Cl)c1-c1ccccc1: F
O=C(N/N=C/C=C/c1ccc([N+](=O)[O-])o1)c1cc2ccccc2cc1O: T
CCN(CC)CCCC(C)Nc1c2ccc(Cl)cc2nc2ccc(O)cc12 (configuration not stated): F
Clc1cc(Cl)cc(Nc2ccc3cc(OCCCN4CCOCC4)ccc3n2)c1: T
CN(C)CCNc1nc2ccccc2c2c1c1c(n2Cc2ccccc2)-c2ccccc2C1=O: T

In: Status in this test for CNC(=O)c1cc(Oc2cccc3nc(Nc4ccc(F)c(Cl)c4)ccc23)ccn1 ?
Out: F

In: Status in this test for CC/C=C\CCC/C=C1/C(=O)C=C[C@@H]1C/C=C\CCCC(=O)O ?
Out: F

In: Status in this test for Cc1c(C)c2c(c(C)c1OCC(=O)O)CC[C@@](C)(CCC[C@@H](C)CCC[C@@H](C)CCCC(C)C)O2 ?
Out: T

====

# Tested on: NCI-H522 lung
# TEST DETAILS: NCI-60 one-dose screen, 48 h (100 = growth as untreated, 0 = no growth, -100 = all killed)
# TEST SETTINGS: 10 µM unless noted
This is part of a sample that, as a whole, favours compounds with a hit. Of some 83,000 tested, about 20% had one in any assay.
PROPERTY MEASURED: growth (%)
Give bare numbers, in %.

Below: 8 compounds and their reported growth.
COC(=O)c1c2c(c(C)[n+]([O-])c1C)C(=O)C(NCc1ccc(F)c(Cl)c1)=CC2=O: -26.6
C[C@@H]1N=C(c2ccc3ccccc3n2)Nc2nc3ccccn3c2C1=O: 102
CCSC1=NC2C(N(CC)C(=O)N2CC)N1/N=C/C=C/c1ccccc1[N+](=O)[O-] (configuration not stated): -1.31
COc1ccc2c(c1)C(=O)/C(=C/c1cccc(OCC(=O)Nc3nc(C)c(C)s3)c1)O2: -72.4
CCN1CCN(c2nc(C)cc(NCc3cc(Nc4ccnc5cc(Cl)ccc45)ccc3F)n2)CC1: -14.8
FC(F)(F)c1cc(Nc2ccc3cc(OCCCN4CCOCC4)ccc3n2)ccc1Cl: -22.1
O=C(c1ccccc1)c1c(/C=C/c2ccccc2)nc2ccccc2c1/C=C/c1ccc(Br)cc1: 88.2
Cc1cc(C)c2c(-c3nnc(N)s3)cc(=O)oc2c1: 101

Provide the reported growth of each entry below, same order.
1. Cc1ccc(S(=O)(=O)n2cc(CNc3ccc(N4CCOCC4=O)cc3)c3ccccc32)cc1
2. CN1C(=O)N(C)C2C1NN=c1s/c(=C\c3ccccc3)c(=O)n12 (configuration not stated)
3. O=C(CCc1nnc(CN(c2ccccc2)c2ccccc2)o1)c1nc2ccccc2[nH]1
4. O=C(Nc1ccccc1Cl)Oc1ccc(-c2ccccc2)cc1
5. Cc1c(O)cc(-c2cnc(N/N=C\c3ccc(Cl)cc3)s2)c(O)c1C
6. Cc1ccc(-n2c(-c3ccccc3)c(-c3ccccc3)c3c(SCC(=O)n4[nH]c(N)cc4=O)ncnc32)cc1

Out:
1: -10.5; 2: 12.5; 3: 73.9; 4: 103; 5: 65.1; 6: 79.6
